Data provenance: patent US8383637B2

Target: β-secretase(BACE) (Homo sapiens)
Construct: purchased Panvera
Sequence (P56817 46-501): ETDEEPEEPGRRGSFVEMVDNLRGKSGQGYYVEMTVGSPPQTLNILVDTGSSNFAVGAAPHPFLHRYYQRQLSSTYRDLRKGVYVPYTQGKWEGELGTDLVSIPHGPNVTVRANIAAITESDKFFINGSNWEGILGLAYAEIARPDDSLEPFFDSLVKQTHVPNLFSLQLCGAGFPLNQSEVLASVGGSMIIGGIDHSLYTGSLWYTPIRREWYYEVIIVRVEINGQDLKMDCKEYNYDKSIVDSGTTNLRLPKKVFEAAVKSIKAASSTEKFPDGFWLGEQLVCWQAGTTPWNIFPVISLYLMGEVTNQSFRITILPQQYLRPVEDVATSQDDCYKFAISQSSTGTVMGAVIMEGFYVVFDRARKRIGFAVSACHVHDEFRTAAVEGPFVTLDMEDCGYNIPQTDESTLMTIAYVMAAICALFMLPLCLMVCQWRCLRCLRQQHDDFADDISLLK
Assay: BACE FS1% Inhibition Assay
Assay type: biochemical
Conditions: 0.3 μM test compound; FS1 substrate; read-out: % Inhibition (FS) 0.3 μM
# key: entry, value: inhibition at 0.3 µM
PARAMETER_MEASURED: inhibition at 0.3 µM (%)

INSERT INTO measurements (compound, parameter_measured, censoring_qualifier, observed_value) VALUES
  ('NC1=Nc2ccc(Oc3ccccc3)cc2CN1C(CNC(=O)C1CCCCC1)C1CCCCC1 (stereo not shown)', 'inhibition at 0.3 µM', '=', 94),
  ('CC(C)CCC(=O)NCCN1Cc2cc(-c3ccccc3F)ccc2N=C1N', 'inhibition at 0.3 µM', '=', 79),
  ('CN(C(=O)c1cccc(CN2Cc3cc(-c4ccccc4)ccc3N=C2N)c1)C1CCCCC1', 'inhibition at 0.3 µM', '=', 98),
  ('CC(C)N(C(=O)CCN1Cc2cc(Oc3ccccc3)ccc2N=C1N)C1CCCCC1', 'inhibition at 0.3 µM', '<', 30),
  ('COc1ccccc1C(=O)NCCN1Cc2cc(Oc3ccccc3)ccc2N=C1N', 'inhibition at 0.3 µM', '<', 30),
  ('NC1=Nc2ccc(-c3cccc(Cl)c3)cc2CN1CCNC(=O)C1CCCCC1', 'inhibition at 0.3 µM', '<', 30),
  ('Cc1ccc(C(CCC(=O)N(C)C2CCCCC2)N2Cc3cc(Oc4ccccc4)ccc3N=C2N)cc1 (stereo not shown)', 'inhibition at 0.3 µM', '<', 30),
  ('CN(C(=O)c1cccc(CN2Cc3cc(-c4ccccc4CC#N)ccc3N=C2N)c1)C1CCCCC1', 'inhibition at 0.3 µM', '<', 30),
  ('COc1cccc(Oc2ccc3c(c2)CN(Cc2cccc(C(=O)N(C)C4CCCCC4)c2)C(N)=N3)c1', 'inhibition at 0.3 µM', '<', 30),
  ('CCCC(CCC)C(=O)NCC(C1CCCCC1)N1Cc2cc(Oc3ccccc3)ccc2N=C1N (stereo not shown)', 'inhibition at 0.3 µM', '<', 30),
  ('Cc1cccc(-c2ccc3c(c2)CN(Cc2cccc(C(=O)N(C)C4CCCCC4)c2)C(N)=N3)c1', 'inhibition at 0.3 µM', '=', 66),
  ('CN(C(=O)c1cccc(CN2Cc3cc(-c4ccccc4C(F)(F)F)ccc3N=C2N)c1)C1CCCCC1', 'inhibition at 0.3 µM', '<', 30),
  ('NC1=Nc2ccc(Oc3ccccc3)cc2CN1CCC(=O)NC1C2CC3CC(C2)CC1C3 (stereo not shown)', 'inhibition at 0.3 µM', '=', 100),
  ('CN(C(=O)c1cccc(CN2Cc3cc(-c4ccccc4Cl)ccc3N=C2N)c1)C1CCCCC1', 'inhibition at 0.3 µM', '=', 53),
  ('NC1=Nc2ccc(Oc3ccccc3)cc2CN1Cc1cccc(C(=O)N(C2CCCCC2)C2CCCCC2)c1', 'inhibition at 0.3 µM', '=', 49),
  ('CC1CCCCC1C(=O)NCCN1Cc2cc(Oc3ccccc3)ccc2N=C1N (stereo not shown)', 'inhibition at 0.3 µM', '=', 75);
